# target_entity: Ribonucleotide reductase large subunit (Herpes simplex virus 1)
# assay_name: Inhibitory activity against HSV-1 in baby hamster kidney cell
Non-standard residues stand in square brackets, D forms with d. Residues, ends and D or L forms follow the SMILES beside them. *: point of attachment. Asp(3,3-(CH2)4) = N[C@H](C(=O)O)C1(C(=O)O)CCCC1; Dibenzylacetyl = O=C(C(Cc1ccccc1)Cc1ccccc1)*; Leu(γ-Me)ol = CC(C)(C)C[C@@H](CO)N*; Tle = CC(C)(C)[C@H](N)C(=O)O; NMeV = CN[C@H](C(=O)O)C(C)C; Leu(ol) = CC(C)C[C@H](N)CO; Pyrrolidide = C1CCN(*)C1
measured_attribute: EC50 (µM)
Numeric answer only, unit µM assumed.

Ask: // query EC50 value for entry CC(C)[C@@H](C(=O)N[C@H](C(=O)N[C@@H](CC(=O)N1CCCC1)C(=O)N[C@H](C(=O)N[C@H](CO)CC(C)(C)C)C1(C(=O)O)CCCC1)C(C)(C)C)N(C)C(=O)C(Cc1ccccc1)Cc1ccccc1 (Dibenzylacetyl-[NMeV][Tle]D(Pyrrolidide)[Asp(3,3-(CH2)4)]-{Leu(γ-Me)ol})
Result: 3.1

Ask: Continue with CC(C)[C@@H](C(=O)N[C@H](C(=O)N[C@@H](CC(=O)N1CCCC1)C(=O)N[C@@H](CC(=O)O)C(=O)N[C@H](CO)CC(C)(C)C)C(C)(C)C)N(C)C(=O)C(Cc1ccccc1)Cc1ccccc1 (Dibenzylacetyl-[NMeV][Tle]D(Pyrrolidide)D-{Leu(γ-Me)ol})
Result: 30

Ask: Continue with CC(C)[C@H](NC(=O)[C@H](C(C)C)N(C)C(=O)C(Cc1ccccc1)Cc1ccccc1)C(=O)N[C@@H](CC(=O)N1CCCC1)C(=O)N[C@H](C(=O)N[C@H](CO)CC(C)(C)C)C1(C(=O)O)CCCC1 (Dibenzylacetyl-[NMeV]VD(Pyrrolidide)[Asp(3,3-(CH2)4)]-{Leu(γ-Me)ol})
Result: 7

Ask: Continue with CC(C)C[C@@H](CO)NC(=O)[C@@H](NC(=O)[C@H](CC(=O)N1CCCC1)NC(=O)[C@@H](NC(=O)[C@H](C(C)C)N(C)C(=O)C(Cc1ccccc1)Cc1ccccc1)C(C)(C)C)C1(C(=O)O)CCCC1 (Dibenzylacetyl-[NMeV][Tle]D(Pyrrolidide)[Asp(3,3-(CH2)4)][Leu(ol)])
Result: 7.3

Ask: Continue with CC(C)[C@H](NC(=O)C(Cc1ccccc1)Cc1ccccc1)C(=O)N[C@H](C(=O)N[C@@H](CC(=O)N1CCCC1)C(=O)N[C@H](C(=O)N[C@H](CO)CC(C)(C)C)C1(C(=O)O)CCCC1)C(C)(C)C (Dibenzylacetyl-V[Tle]D(Pyrrolidide)[Asp(3,3-(CH2)4)]-{Leu(γ-Me)ol})
Result: 12

Ask: Continue with CC(C)[C@@H](C(=O)N[C@H](C(=O)N[C@@H](CC(N)=O)C(=O)N[C@H](C(=O)N[C@H](CO)CC(C)(C)C)C1(C(=O)O)CCCC1)C(C)(C)C)N(C)C(=O)C(Cc1ccccc1)Cc1ccccc1 (Dibenzylacetyl-[NMeV][Tle]N[Asp(3,3-(CH2)4)]-{Leu(γ-Me)ol})
Result: 150

* * *

# target_entity: Ribonucleotide reductase large subunit (Herpes simplex virus 1)
# assay_name: In vitro inhibitory activity against HSV ribonucleotide reductase
Non-standard residues stand in square brackets, D forms with d. Residues, ends and D or L forms follow the SMILES beside them. *: point of attachment. Dibenzylacetyl = O=C(C(Cc1ccccc1)Cc1ccccc1)*; Hydrocinnamoyl = O=C(CCc1ccccc1)*; Chg = N[C@H](C(=O)O)C1CCCCC1; Pyrrolidide = C1CCN(*)C1
pIC50 reference
pIC50 here: minus log base 10 of the concentration, concentration in moles per litre.

CC(C)C[C@H](NC(=O)[C@H](CC(=O)O)NC(=O)[C@H](CC(=O)N1CCCC1)NC(=O)[C@@H](NC(=O)[C@H](C)NC(=O)CCc1ccccc1)C(C)C)C(=O)O (Hydrocinnamoyl-AVD(Pyrrolidide)DL-OH); 5.06
CC(C)C[C@H](NC(=O)[C@H](CC(=O)O)NC(=O)[C@H](CC(=O)N1CCCC1)NC(=O)[C@@H](NC(=O)[C@@H](NC(=O)C(Cc1ccccc1)Cc1ccccc1)C(C)C)C(C)C)C(=O)O (Dibenzylacetyl-VVD(Pyrrolidide)DL-OH); 9.15
CC(=O)N[C@H](C(=O)N[C@H](C(=O)N[C@@H](CC(=O)N1CCCC1)C(=O)N[C@@H](CC(=O)O)C(=O)N[C@@H](CC(C)C)C(=O)O)C(C)C)C(C)C (Ac-VVD(Pyrrolidide)DL-OH); 6.06
CC(C)C[C@H](NC(=O)[C@H](CC(=O)O)NC(=O)[C@H](CC(=O)N1CCCC1)NC(=O)[C@@H](NC(=O)[C@@H](NC(=O)CCc1ccccc1)C1CCCCC1)C(C)C)C(=O)O (Hydrocinnamoyl-[Chg]VD(Pyrrolidide)DL-OH); 7.66

Could you now look at the following molecule, please?
Ask: Record CC(C)C[C@H](NC(=O)[C@H](CC(=O)O)NC(=O)[C@H](CC(=O)N1CCCC1)NC(=O)[C@@H](NC(=O)[C@@H](NC(=O)CCc1ccccc1)C(C)C)C(C)C)C(=O)O (Hydrocinnamoyl-VVD(Pyrrolidide)DL-OH) : what is its pIC50 with Ribonucleotide reductase large subunit (Herpes simplex virus 1)?
Result: 7.62

* * *

# target_entity: Ribonucleotide reductase large subunit (Herpes simplex virus 1)
# assay_name: Inhibitory activity against HSV-1 in baby hamster kidney cell
Non-standard residues stand in square brackets, D forms with d. Residues, ends and D or L forms follow the SMILES beside them. *: point of attachment. Asp(3,3-(CH2)4) = N[C@H](C(=O)O)C1(C(=O)O)CCCC1; Dibenzylacetyl = O=C(C(Cc1ccccc1)Cc1ccccc1)*; Leu(γ-Me)ol = CC(C)(C)C[C@@H](CO)N*; Hydrocinnamoyl = O=C(CCc1ccccc1)*; tBuAla = CC(C)(C)C[C@H](N)C(=O)O; Tle = CC(C)(C)[C@H](N)C(=O)O; NMeV = CN[C@H](C(=O)O)C(C)C; Pyrrolidide = C1CCN(*)C1
EC50 reference
Numeric answer only, unit µM assumed.

CC(C)[C@@H](C(=O)N[C@H](C(=O)N[C@@H](CC(=O)N1CCCC1)C(=O)N[C@H](C(=O)N[C@H](CO)CC(C)(C)C)C1(C(=O)O)CCCC1)C(C)(C)C)N(C)C(=O)CCc1ccccc1 (Hydrocinnamoyl-[NMeV][Tle]D(Pyrrolidide)[Asp(3,3-(CH2)4)]-{Leu(γ-Me)ol}); 52

Could you now look at the following molecule, please?
Ask: // query EC50 value for entry CC(C)[C@@H](C(=O)N[C@H](C(=O)N[C@@H](CC(=O)N1CCCC1)C(=O)N[C@H](C(=O)N[C@@H](CC(C)(C)C)C(=O)O)C1(C(=O)O)CCCC1)C(C)(C)C)N(C)C(=O)C(Cc1ccccc1)Cc1ccccc1 (Dibenzylacetyl-[NMeV][Tle]D(Pyrrolidide)[Asp(3,3-(CH2)4)][tBuAla]-OH)
Result: 35

* * *

# target_entity: Ribonucleotide reductase large subunit (Herpes simplex virus 1)
# assay_name: In vitro inhibitory activity against HSV ribonucleotide reductase
Non-standard residues stand in square brackets, D forms with d. Residues, ends and D or L forms follow the SMILES beside them. *: point of attachment. Asp(3,3-(CH2)4) = N[C@H](C(=O)O)C1(C(=O)O)CCCC1; Hydrocinnamoyl = O=C(CCc1ccccc1)*; Butanoyl(2-Et) = CCC(CC)C(=O)*; Tle = CC(C)(C)[C@H](N)C(=O)O; NMeV = CN[C@H](C(=O)O)C(C)C; Pyrrolidide = C1CCN(*)C1
measured_attribute: IC50 (µM)
Numeric answer only, unit µM assumed.

CCC(CC)C(=O)N[C@H](C(=O)N[C@@H](CC(=O)N1CCCC1)C(=O)N[C@@H](CC(=O)O)C(=O)N[C@@H](CC(C)C)C(=O)O)C(C)C ({Butanoyl(2-Et)}-VD(Pyrrolidide)DL-OH); 0.86
CC[C@H](C)[C@H](NC(=O)CCc1ccccc1)C(=O)N[C@H](C(=O)N[C@@H](CC(=O)N1CCCC1)C(=O)N[C@@H](CC(=O)O)C(=O)N[C@@H](CC(C)C)C(=O)O)C(C)C (Hydrocinnamoyl-IVD(Pyrrolidide)DL-OH); 0.061
CC(C)C[C@H](NC(=O)[C@H](CC(=O)O)NC(=O)[C@H](CC(=O)N1CCCC1)NC(=O)[C@@H](NC(=O)CNC(=O)CCc1ccccc1)C(C)C)C(=O)O (Hydrocinnamoyl-GVD(Pyrrolidide)DL-OH); 115
CC(C)C[C@H](NC(=O)[C@H](CC(=O)O)NC(=O)[C@H](CC(N)=O)NC(=O)[C@@H](NC(=O)[C@@H](NC(=O)[C@H](C)Cc1ccccc1)C(C)C)C(C)C)C(=O)O; 0.86
CC(C)C[C@H](NC(=O)[C@H](CC(=O)O)NC(=O)[C@H](CC(=O)N1CCCC1)NC(=O)[C@@H](NC(=O)[C@H](C(C)C)N(C)C(=O)CCc1ccccc1)C(C)C)C(=O)O (Hydrocinnamoyl-[NMeV]VD(Pyrrolidide)DL-OH); 0.0075
CC(C)C[C@H](NC(=O)[C@H](CC(=O)O)NC(=O)[C@H](CC(N)=O)NC(=O)[C@@H](NC(=O)[C@@H](NC(=O)[C@@H](C)Cc1ccccc1)C(C)C)C(C)C)C(=O)O; 11

Ask: // query IC50 value for entry CCC(CC)C(=O)N[C@H](C(=O)N[C@@H](CC(=O)N1CCCC1)C(=O)N[C@H](C(=O)N[C@@H](CC(C)C)C(=O)O)C1(C(=O)O)CC=CC1)C(C)(C)C
Result: 0.0064

Ask: Continue with CC(C)C[C@H](NC(=O)[C@H](CC(=O)O)NC(=O)[C@H](CC(=O)N1CCCC1)NC(=O)[C@@H](NC(=O)[C@@H](NC(=O)CCc1ccccc1)C(C)(C)C)C(C)C)C(=O)O (Hydrocinnamoyl-[Tle]VD(Pyrrolidide)DL-OH)
Result: 0.036

Ask: Continue with CC(C)C[C@H](NC(=O)[C@@H](NC(=O)[C@H](CC(=O)N1CCCC1)NC(=O)[C@@H](NC(=O)[C@@H](NC(=O)CCc1ccccc1)C(C)C)C(C)C)C1(C(=O)O)CCCC1)C(=O)O (Hydrocinnamoyl-VVD(Pyrrolidide)[Asp(3,3-(CH2)4)]L-OH)
Result: 0.001

Ask: Continue with CC(C)C[C@H](NC(=O)[C@H](CC(=O)O)NC(=O)[C@H](CC(N)=O)NC(=O)[C@@H](NC(=O)[C@@H](NC(=O)C(Cc1ccccc1)Cc1ccccc1)C(C)C)C(C)C)C(=O)O
Result: 0.18

Just for reference, ChEMBL document CHEMBL1128692 is where these values come from.
